Please find below pKi measurements for UniProt:P25103, combined from several publications.
Just so you know, pKi here is -log10 of the concentration in molar units; reply with that number alone.

>  <molecule>
CN(CCc1cc(C(F)(F)F)cc(C(F)(F)F)c1)C(=O)[C@H](c1ccccc1)N1CCN(/C(=N/C(=O)c2ccccc2)Nc2ccccc2)CC1

>  <measured number>
9.06

$$$$
>  <molecule>
C/C(=N\O)[C@]1(n2cn[nH]c2=O)CC[C@@](CO[C@H](C)c2cc(C(F)(F)F)cc(C(F)(F)F)c2)(c2ccccc2)NC1

>  <measured number>
9.92

$$$$
>  <molecule>
C[C@@H](OC[C@@]1(c2ccccc2)CC[C@]2(CC(N)=O)CN1CC(=O)N2)c1cc(C(F)(F)F)cc(C(F)(F)F)c1

>  <measured number>
9.80

$$$$
>  <molecule>
CN(CCc1cc(C(F)(F)F)cc(C(F)(F)F)c1)C(=O)C(c1ccccc1)N1CCC(N(C)CCO)CC1 (stereo not shown)

>  <measured number>
9.05

$$$$
>  <molecule>
CO/N=C(\CN(C)C(=O)c1cc(Cl)cc(Cl)c1)[C@H](CCN1CCC(N2CCCN(Cc3ccc[n+]([O-])c3)C2=O)CC1)c1ccc(Cl)c(Cl)c1

>  <measured number>
9.40

$$$$

Record CN(CCc1cc(C(F)(F)F)cc(C(F)(F)F)c1)C(=O)C(c1ccccc1)N1CCN(/C(=N\C2CCCCC2)NC2CCCCC2)CC1 (stereo not shown) / UniProt:P25103, pKi recorded as 8.84

Response field pKi (UniProt:P25103) for item C[C@@H](OC[C@@]1(c2ccccc2)C[C@H]2NC(=O)NC2CN1)c1cc(C(F)(F)F)cc(C(F)(F)F)c1 (stereo partly shown) : 9.64

So the reported pKi for "CSC[C@]12CC[C@@](CO[C@H](C)c3cc(C(F)(F)F)cc(C(F)(F)F)c3)(c3ccccc3)N(CC(=O)N1)C2" , on UniProt:P25103, turned out to be 10.15

Readout pKi for CN(CCc1cc(C(F)(F)F)cc(C(F)(F)F)c1)C(=O)C(c1ccccc1)N1CCN(C2CCCCCC2)CC1 (stereo not shown) , test system UniProt:P25103, was 8.64

The molecule "C[C@@H]1c2nnc(-c3csc(C(F)(F)F)n3)n2CCN1C(=O)c1cc(F)c(F)c(F)c1" , when measured on UniProt:P25103, yielded pKi of 4.62

UniProt:P25103 pKi of "C[C@@H](OC[C@@]1(c2ccccc2)CC[C@]2(CO)CN1CCN2)c1cc(C(F)(F)F)cc(C(F)(F)F)c1" is 9.92

Simply: "C[C@@H](OC[C@@]1(c2ccccc2)CC[C@@](CO)(n2cnnc2)CN1)c1cc(C(F)(F)F)cc(C(F)(F)F)c1" , UniProt:P25103, pKi = 10.30

---

Collected set of Ki measured with Substance-P receptor (Homo sapiens) across studies.
Report as a plain number; the unit nM is understood.

Solved entries:
>  <compound>
C[C@@H](OC[C@@]1(c2ccccc2)CC[C@@](C(N)=O)(n2cnnc2)CN1)c1cc(C(F)(F)F)cc(C(F)(F)F)c1

>  <scale unit>
nM

>  <Ki>
0.1

$$$$
>  <compound>
CN(CCc1cc(C(F)(F)F)cc(C(F)(F)F)c1)C(=O)C(c1ccccc1)N1CCN(C(=N)N2CCOCC2)CC1 (centres unmarked)

>  <scale unit>
nM

>  <Ki>
0.17

$$$$
>  <compound>
CON=C(CN(C)C(=O)c1cc(Cl)cc(Cl)c1)C(CCN1CCC(N2CCCN(C(C)(C)C(=O)O)C2=O)CC1)c1ccc(Cl)c(Cl)c1 (centres unmarked)

>  <scale unit>
nM

>  <Ki>
0.9

$$$$
>  <compound>
Cc1ccc(-c2nnc3n2CCN(C(=O)c2ccc(Cl)c(Cl)c2)[C@@H]3C)o1

>  <scale unit>
nM

>  <Ki>
6900

$$$$

response.value for CC(C)NC(=N)N1CCN(C(C(=O)N(C)CCc2cc(C(F)(F)F)cc(C(F)(F)F)c2)c2ccccc2)CC1 (centres unmarked) (field: Ki) = 0.2

Value of measured Ki for the entry C[C@@H](OC[C@@]1(c2ccccc2)CC[C@@H]2NC(=O)OCCC2N1)c1cc(C(F)(F)F)cc(C(F)(F)F)c1 (some centres unmarked) : 0.14

# Ki (compound: "COC[C@@]1(n2cnnc2)CC[C@@](CO[C@H](C)c2cc(C(F)(F)F)cc(C(F)(F)F)c2)(c2ccccc2)NC1" ) is 0.1

Ki for "CN(CCc1cc(C(F)(F)F)cc(C(F)(F)F)c1)C(=O)[C@H](c1ccccc1)N1CCC(NC(=O)Nc2ccccc2)CC1" is 0.8

response.value for "Cc1ccc(-c2nnc3n2CCN(C(=O)c2ccc(Cl)cc2)[C@@H]3C)o1" (field: Ki) = 25000
